meta.source: ChEMBL document CHEMBL1129452

Biological target: Human immunodeficiency virus type 1 reverse transcriptase (Human immunodeficiency virus 1)
Experiment: Tested for the inhibition of wild type HIV-1 (IIIB) RT
Assay metric: pIC50
// scale note: pIC50 = -log10(conc_M); give the bare number

Case CCOc1ccc(F)c(CCNC(=S)Nc2ccc(I)cn2)c1Cl , Human immunodeficiency virus type 1 reverse transcriptase (Human immunodeficiency virus 1), pIC50 recorded as 8.10

Case CCOc1ccc(F)c(CCNC(=S)Nc2ccc(Cl)cn2)c1Cl , Human immunodeficiency virus type 1 reverse transcriptase (Human immunodeficiency virus 1), pIC50 recorded as 8.22

Case Cn1cccc1CC/N=C(\S)Nc1ccc(C#N)cn1 , Human immunodeficiency virus type 1 reverse transcriptase (Human immunodeficiency virus 1), pIC50 recorded as 7.15

Case COc1ccc(F)c(CC/N=C(\S)Nc2ccc(Br)cn2)c1C#N , Human immunodeficiency virus type 1 reverse transcriptase (Human immunodeficiency virus 1), pIC50 recorded as 9.00

Case CN(C)c1ccc(F)c(CCNC(=S)Nc2ccc(Br)cn2)c1F , Human immunodeficiency virus type 1 reverse transcriptase (Human immunodeficiency virus 1), pIC50 recorded as 8.15

Case N#Cc1ccc(F)c(CC/N=C(\S)Nc2ccc(Cl)cn2)c1F , Human immunodeficiency virus type 1 reverse transcriptase (Human immunodeficiency virus 1), pIC50 recorded as 8.05

Case O=C1c2c(Cl)ccc(Cl)c2C(=O)N1CCNC(=S)Nc1ccc(Cl)cn1 , Human immunodeficiency virus type 1 reverse transcriptase (Human immunodeficiency virus 1), pIC50 recorded as 8.70

Case CCOc1ccc(OCC)c(CCNC(=S)Nc2ccc(Br)cn2)c1 , Human immunodeficiency virus type 1 reverse transcriptase (Human immunodeficiency virus 1), pIC50 recorded as 7.74

Case CNC(=O)c1ccc(F)c(CC/N=C(\S)Nc2ccc(Br)cn2)c1F , Human immunodeficiency virus type 1 reverse transcriptase (Human immunodeficiency virus 1), pIC50 recorded as 7.64

Case CCOc1ccc(F)c(CC/N=C(\S)Nc2nc(C(F)(F)F)cs2)c1Cl , Human immunodeficiency virus type 1 reverse transcriptase (Human immunodeficiency virus 1), pIC50 recorded as 7.33

Case COc1ccc(F)c(CCNC(=S)Nc2ccc(Br)cn2)c1OC , Human immunodeficiency virus type 1 reverse transcriptase (Human immunodeficiency virus 1), pIC50 recorded as 8.15

Case COc1ccc(F)c(CC/N=C(\S)Nc2ccc(Cl)cn2)c1C#N , Human immunodeficiency virus type 1 reverse transcriptase (Human immunodeficiency virus 1), pIC50 recorded as 8.30

Case COc1ccc(OC)c(CCNC(=S)Nc2ccc(Cl)cn2)c1F , Human immunodeficiency virus type 1 reverse transcriptase (Human immunodeficiency virus 1), pIC50 recorded as 9.00

Case Cc1cc2nn(CCNC(=S)Nc3ccc(Br)cn3)nc2cc1C , Human immunodeficiency virus type 1 reverse transcriptase (Human immunodeficiency virus 1), pIC50 recorded as 6.82

Case CN(C)c1ccc(CC/N=C(\S)Nc2ccc(Br)cn2)c(F)c1C#N , Human immunodeficiency virus type 1 reverse transcriptase (Human immunodeficiency virus 1), pIC50 recorded as 8.10

Case CCOc1ccc(OC)c(CCNC(=S)Nc2ccc(Cl)cn2)c1F , Human immunodeficiency virus type 1 reverse transcriptase (Human immunodeficiency virus 1), pIC50 recorded as 8.30

Case CCOc1ccc(F)c(CC/N=C(\S)Nc2ccc(Br)cn2)c1C#N , Human immunodeficiency virus type 1 reverse transcriptase (Human immunodeficiency virus 1), pIC50 recorded as 8.70

###

Field: pIC50. Provide a value for each of the compounds that follow.
Target: UniProt:Q72547
Assay: Tested for the inhibition of mutant type (Ile100) HIV-1 (IIIB) RT
// scale note: pIC50 = -log10(conc_M); give the bare number

The recorded pIC50 for Fc1cc(F)c(CCNC(=S)Nc2ccc(Cl)cn2)c(F)c1 is 6.09

The recorded pIC50 for COCc1ccc(F)c(CCNC(=S)Nc2ccc(Br)cn2)c1F is 6.14

The recorded pIC50 for COc1ccc(F)c(F)c1CCNC(=S)Nc1ccc(Br)cn1 is 7.30

The recorded pIC50 for CN(C)c1cc(F)c(CCNC(=S)Nc2ccc(Cl)cn2)c(F)c1 is 6.57

The recorded pIC50 for N#Cc1ccoc1CCNC(=S)Nc1ccc(Cl)cn1 is 5.59

The recorded pIC50 for O=C1c2ccccc2C(=O)N1CCNC(=S)Nc1ccc(Cl)cn1 is 6.55
